target: biotinylated human DLL3 protein expressed as a human IgG1 fusion protein (human) (UniProt Q9NYJ7); assay: Octet BLI; biotinylated huDLL3-IgG1 fusion on streptavidin tips; single 50 nM; conditioned medium
Sequence (Q9NYJ7 other isoform, or with tags, fused parts or gaps): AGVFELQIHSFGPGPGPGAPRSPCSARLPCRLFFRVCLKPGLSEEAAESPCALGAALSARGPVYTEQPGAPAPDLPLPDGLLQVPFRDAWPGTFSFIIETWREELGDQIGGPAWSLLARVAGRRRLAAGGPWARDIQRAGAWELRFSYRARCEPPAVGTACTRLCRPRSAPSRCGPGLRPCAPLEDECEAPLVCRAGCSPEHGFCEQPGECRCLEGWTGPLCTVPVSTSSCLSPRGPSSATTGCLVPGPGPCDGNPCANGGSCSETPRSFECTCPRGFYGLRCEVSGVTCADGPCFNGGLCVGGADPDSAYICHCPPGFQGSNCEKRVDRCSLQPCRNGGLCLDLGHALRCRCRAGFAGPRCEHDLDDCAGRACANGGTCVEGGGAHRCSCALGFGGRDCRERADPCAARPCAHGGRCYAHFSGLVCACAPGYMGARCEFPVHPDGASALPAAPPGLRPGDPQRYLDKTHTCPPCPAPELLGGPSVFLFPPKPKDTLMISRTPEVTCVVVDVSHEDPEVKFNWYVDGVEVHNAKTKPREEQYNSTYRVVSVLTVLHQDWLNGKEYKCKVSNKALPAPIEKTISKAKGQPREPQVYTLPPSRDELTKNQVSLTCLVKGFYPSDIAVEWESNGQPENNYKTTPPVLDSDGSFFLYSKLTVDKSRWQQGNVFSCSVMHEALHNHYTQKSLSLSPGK
Each record here notes measured pKd.
Lab note — pKd values are minus log10 of concentrations in M.

anti-DLL3 trispecific protein 1G01 (protein, part only; not given: CD3 binder and albumin binder, part only) chain, part: EVQLVESGGGLVQPGGSLTLSCVASGSTSSINAMAWYRRAPGKQRELVAGISSDGSKVYAESVKGRFTISRDNAKNSVYLQMNSLRAEDTAVYYCYYFRTVSGASMRYWGQGTLVTVSSGGGGSGGGSGGGGSGGGSHHHHHH    8.18

Please turn your attention to the following entry.
Endpoint output: pKd of anti-DLL3 trispecific protein 1D09 (protein, part only; not given: anti-CD3 and anti-albumin domains, part only) chain, part: EVQLVESGGGLVQPGGSLTLSCVASGSTSSINAMAWYRRAPGKQRELVAGISSDGSKVYTDSVKGRFTISRDNAKNSVYLQMNSLRAEDTAVYYCYYFRTISGSSMRYWGQGTLVTVSSGGGGSGGGSGGGGSGGGSHHHHHH . Value?
8.28
